Cited source for all entries: patent US20090098570A1

Assay system: T1, His-LXRα/FLAG-RXRα heterodimer (ligand binding domains of human LXRα and human RXRα) (human, UniProt Q13133 164-447; P19793 201-462)
T1 construct: Co-expressed in E. coli BL21(DE3) from pET15b-LXRα/FLAG-RXRα and purified together on Ni2+ resin; also called His-LXRα and FLAG-RXRα; heterodimer comprising LXRα and RXRα
T1 sequence 1: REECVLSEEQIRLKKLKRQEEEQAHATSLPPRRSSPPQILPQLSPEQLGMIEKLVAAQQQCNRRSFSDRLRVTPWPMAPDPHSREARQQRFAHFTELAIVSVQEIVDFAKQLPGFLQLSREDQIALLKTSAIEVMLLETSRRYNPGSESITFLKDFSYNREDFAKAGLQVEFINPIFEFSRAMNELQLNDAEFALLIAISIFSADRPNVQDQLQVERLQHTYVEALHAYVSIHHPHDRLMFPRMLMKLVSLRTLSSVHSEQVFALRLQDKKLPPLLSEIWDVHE
T1 sequence 2: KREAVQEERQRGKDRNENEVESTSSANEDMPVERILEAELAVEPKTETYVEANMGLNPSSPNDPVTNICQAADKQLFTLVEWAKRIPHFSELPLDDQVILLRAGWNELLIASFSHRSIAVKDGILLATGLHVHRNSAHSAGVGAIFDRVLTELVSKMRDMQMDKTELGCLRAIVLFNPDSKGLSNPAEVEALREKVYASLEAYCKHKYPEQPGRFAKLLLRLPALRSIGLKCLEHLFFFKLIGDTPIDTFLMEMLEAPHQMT
Assay summary: FRET (665/620 nm), anti-His tag antibody + streptavidin, biotinylated peptide; with Compound B, relative to DMSO-only control
No end group written: not given here. *: point of attachment. Biotin = O=C1N[C@H]2[C@H](CS[C@H]2CCCCC(=O)*)N1
Observable: % of control

Solved cases (4 shown):
INSERT INTO measurements (binder, measured) VALUES
  ('Biotin-GHGEDFSKVSQNPILTSLLQITGNG [TRAP220 peptide GHGEDFSKVSQNPILTSLLQITGNG (aa 590-614)]', '107 % of control'),
  ('Biotin-KQEPVSPKKKENALLRYLLDKDDTK [TIF2 NRB2 peptide KQEPVSPKKKENALLRYLLDKDDTK (aa 731-755)]', '127 % of control'),
  ('Biotin-CCFCGEDHPRQGSILYSLLTSSKQT (cysteine pairing not given here) [DAX1 peptide CCFCGEDHPRQGSILYSLLTSSKQT (aa 132-156)]', '107 % of control'),
  ('Biotin-KNPTSCSRRFYQLTKLLDSVQPIAR [PNRC peptide KNPTSCSRRFYQLTKLLDSVQPIAR (aa 848-872)]', '110 % of control');

For reference, reported % of control for Biotin-SPKKKENNALLRYLLDRDDPSDALSK [ACTR NRB3 peptide SPKKKENNALLRYLLDRDDPSDALSK (aa 728-753)] stands at 92 % of control

For reference, reported % of control for Biotin-HSKASWAEFSILRELLAQDVLCD [PERC NRB2 peptide HSKASWAEFSILRELLAQDVLCD (aa 332-354)] stands at 104 % of control
